Molecular target: Human BACE (Homo sapiens)
Construct: Recombinant BACE (extracellular domain, expressed in baculovirus and purified using standard methods)
Sequence (P56817 46-457 limits assumed): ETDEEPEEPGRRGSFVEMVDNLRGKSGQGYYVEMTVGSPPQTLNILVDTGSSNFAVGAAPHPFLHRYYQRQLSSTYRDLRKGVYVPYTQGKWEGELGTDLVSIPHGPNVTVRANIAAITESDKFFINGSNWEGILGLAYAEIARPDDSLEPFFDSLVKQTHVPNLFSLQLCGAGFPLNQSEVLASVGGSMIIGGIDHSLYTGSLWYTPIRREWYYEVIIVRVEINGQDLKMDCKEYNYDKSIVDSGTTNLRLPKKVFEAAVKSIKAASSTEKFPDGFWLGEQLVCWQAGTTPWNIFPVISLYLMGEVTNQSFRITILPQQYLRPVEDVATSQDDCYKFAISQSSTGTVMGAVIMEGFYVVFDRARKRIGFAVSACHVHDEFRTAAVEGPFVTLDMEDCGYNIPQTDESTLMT
Test: Test 1: Inhibition of Human BACE
Settings: recombinant BACE, fluorescence-quenched peptide substrate, pH 4.5
Method: Test 1: Inhibition of Human BACE Recombinant BACE (extracellular domain, expressed in baculovirus and purified using standard methods) at 0.1 to 10 nM concentrations is incubated with the test compound at various concentrations for 1 hour at room temperature in 10 to 100 mM acetate buffer, pH 4.5, containing 0.1% CHAPS.
pIC50: −log10 of the molar value.

[
  {
    "structureAsSmiles": "COc1cc2cc(c1)C(=O)N[C@H]([C@H](O)CNC1(c3cc(C(C)(C)C)ccn3)CC1)C[C@H](C)CCCCCCCN2",
    "targetDesc": "Human BACE (Homo sapiens)",
    "pIC50": 7.40
  }
]
